TESTED_ON: UniProt:Q63470
EXPERIMENTAL_PROTOCOL: In vitro kinase assay DYRK1A, Woodtide substrate
Assay type: biochemical
PARAMETER: IC50 (nM)

COCCn1cnc2ccc3nc(C(=N)OCc4ccccc4)sc3c2c1=O [Compound 13b]
290
N#Cc1nc2ccc3ncn(C4CC4)c(=O)c3c2s1 [Compound 11a]
3300
CCOC(=N)c1nc2ccc3ncn(CCOC)c(=O)c3c2s1 [Compound 14b]
820
CCOC(=N)c1nc2ccc3ncn(CCCOC)c(=O)c3c2s1 [Compound 14c]
370
N=C(OCc1ccccc1)c1nc2ccc3ncn(C4CCC4)c(=O)c3c2s1 [Compound 13f]
59
COC(=N)c1nc2ccc3ncn(-c4ccc(OC)cc4)c(=O)c3c2s1 [Compound 12l]
3000
COC(=N)c1nc2ccc3ncn(CCN4CCOCC4)c(=O)c3c2s1 [Compound 12j]
200
COC(=N)c1nc2ccc3ncn(C4CCCCC4)c(=O)c3c2s1 [Compound 12g]
170
COC(=N)c1nc2ccc3ncn(C4CCC4)c(=O)c3c2s1 [Compound 12f]
130

---

TESTED_ON: DYRK1A (Rattus norvegicus)
EXPERIMENTAL_PROTOCOL: In vitro kinase assay DYRK1A, Woodtide substrate
Format: biochemical
pIC50: −log10 of the molar value.
PARAMETER: pIC50

CCOC(=N)c1nc2ccc3ncn(C(C)C)c(=O)c3c2s1 [Compound 14d]
6.43
COC(=N)c1nc2ccc3ncn(C)c(=O)c3c2s1 [Compound 12n]
6.74
COCCCn1cnc2ccc3nc(C(=N)OC)sc3c2c1=O [Compound 12c]
6.49
CC(C)OC(=N)c1nc2ccc3ncn(C4CC4)c(=O)c3c2s1 [Compound 15a]
6.38
COCCn1cnc2ccc3nc(C#N)sc3c2c1=O [Compound 11b]
5.11
CCOC(=N)c1nc2ccc3ncn(C4CC4)c(=O)c3c2s1 [Compound 14a]
6.68
CN(C)n1cnc2ccc3nc(C(=N)OCc4ccccc4)sc3c2c1=O [Compound 13h]
6.68
N=C(OCc1ccccc1)c1nc2ccc3ncn(C4CCCCC4)c(=O)c3c2s1 [Compound 13g]
6.55
N=C(OCc1ccccc1)c1nc2ccc3ncn(C4CCCC4)c(=O)c3c2s1 [Compound 13e]
7.21

---

TESTED_ON: DYRK1A (Rattus norvegicus, UniProt Q63470)
EXPERIMENTAL_PROTOCOL: DYRK1A inhibition of earlier compounds I and II (Figure 2)
Format: biochemical
MEASUREMENT_CONTEXT: list of targeted kinases extended for earlier compounds
PARAMETER: IC50

CCn1cnc2ccc3nc(C(=N)OCc4ccccc4)sc3c2c1=O [II]
1500 nM

---

TESTED_ON: DYRK1A (Rattus norvegicus, UniProt Q63470)
EXPERIMENTAL_PROTOCOL: In vitro kinase assay DYRK1A, Woodtide substrate
Format: biochemical
MEASUREMENT_CONTEXT: 15 μM ATP, 30 min, 30 °C, triplicate; <50% inhibition at 10 μM = IC50 >10 μM; read-out: DYRK1A IC50
Each entry below carries its recorded IC50.
PARAMETER: IC50 (nM)

COC(=N)c1nc2ccc3ncn(CCN(C)C)c(=O)c3c2s1 [Compound 12i]
1000
COCCCn1cnc2ccc3nc(C(=N)OC(C)C)sc3c2c1=O [Compound 15c]
950
COCCn1cnc2ccc3nc(C(=N)OC)sc3c2c1=O [Compound 12b]
390
COCCn1cnc2ccc3nc(C(=N)OC(C)C)sc3c2c1=O [Compound 15b]
3900

---

TESTED_ON: GSK-3α/β
EXPERIMENTAL_PROTOCOL: In vitro kinase assay GSK-3α/β, GS-1 peptide substrate
Type: biochemical, Porcine
pIC50: −log10 of the molar value.
# pIC50 annotations
PARAMETER: pIC50

COC(=N)c1nc2ccc3ncn(-c4ccc(OC)cc4)c(=O)c3c2s1 [Compound 12l]
5.92
COCCCn1cnc2ccc3nc(C(=N)OCc4ccccc4)sc3c2c1=O [Compound 13c]
6.96
N=C(OCc1ccccc1)c1nc2ccc3ncn(C4CCC4)c(=O)c3c2s1 [Compound 13f]
7.15
N#Cc1nc2ccc3ncn(C4CC4)c(=O)c3c2s1 [Compound 11a]
5.48
CCOC(=N)c1nc2ccc3ncn(CCOC)c(=O)c3c2s1 [Compound 14b]
5.92
N=C(OCc1ccccc1)c1nc2ccc3ncn(C4CCCCC4)c(=O)c3c2s1 [Compound 13g]
7.08
COC(=N)c1nc2ccc3ncn(C4CC4)c(=O)c3c2s1 [Compound 12a]
7.09
COCCn1cnc2ccc3nc(C(=N)OC)sc3c2c1=O [Compound 12b]
5.92
COC(=N)c1nc2ccc3ncn(N(C)C)c(=O)c3c2s1 [Compound 12h]
6.52
COC(=N)c1nc2ccc3ncn(C4CCC4)c(=O)c3c2s1 [Compound 12f]
6.80
CN(C)n1cnc2ccc3nc(C(=N)OCc4ccccc4)sc3c2c1=O [Compound 13h]
6.82
COC(=N)c1nc2ccc3ncn(C4CCCC4)c(=O)c3c2s1 [Compound 12e]
7.55
COC(=N)c1nc2ccc3ncn(CCN(C)C)c(=O)c3c2s1 [Compound 12i]
5.74
CCOC(=N)c1nc2ccc3ncn(C4CCCC4)c(=O)c3c2s1 [Compound 14e]
7.54
COCCn1cnc2ccc3nc(C(=N)OCc4ccccc4)sc3c2c1=O [Compound 13b]
6.16
COC(=N)c1nc2ccc3ncn(C)c(=O)c3c2s1 [Compound 12n]
5.77
CCOC(=N)c1nc2ccc3ncn(CCCOC)c(=O)c3c2s1 [Compound 14c]
6.77
COC(=N)c1nc2ccc3ncn(C4CCCCC4)c(=O)c3c2s1 [Compound 12g]
7.52
COC(=N)c1nc2ccc3ncn(C(C)C)c(=O)c3c2s1 [Compound 12d]
7.39
COC(=N)c1nc2ccc3ncn(-c4ccc(C)cc4)c(=O)c3c2s1 [Compound 12k]
6.29
COCCCn1cnc2ccc3nc(C(=N)OC(C)C)sc3c2c1=O [Compound 15c]
6.57
N=C(OCc1ccccc1)c1nc2ccc3ncn(C4CCCC4)c(=O)c3c2s1 [Compound 13e]
7.55

---

TESTED_ON: CLK1 (Homo sapiens, UniProt P49759)
Sequence (P49759 whole entry): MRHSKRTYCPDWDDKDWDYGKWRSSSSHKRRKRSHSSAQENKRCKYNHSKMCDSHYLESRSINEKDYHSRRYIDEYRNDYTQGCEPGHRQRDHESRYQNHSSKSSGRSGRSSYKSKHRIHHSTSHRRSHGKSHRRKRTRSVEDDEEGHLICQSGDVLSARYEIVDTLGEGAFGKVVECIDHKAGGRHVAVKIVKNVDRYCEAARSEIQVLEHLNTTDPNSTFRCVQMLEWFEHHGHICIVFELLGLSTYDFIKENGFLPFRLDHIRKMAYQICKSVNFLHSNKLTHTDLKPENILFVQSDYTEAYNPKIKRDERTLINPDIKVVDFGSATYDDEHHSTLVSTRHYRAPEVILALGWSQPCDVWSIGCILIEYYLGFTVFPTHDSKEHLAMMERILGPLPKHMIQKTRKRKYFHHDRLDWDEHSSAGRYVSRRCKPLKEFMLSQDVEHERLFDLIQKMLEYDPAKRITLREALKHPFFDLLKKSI
EXPERIMENTAL_PROTOCOL: biochemical
pIC50: −log10 of the molar value.
PARAMETER: pIC50

CC(C)OC(=N)c1nc2ccc3ncn(C4CC4)c(=O)c3c2s1 [Compound 15a]
7.37
COCCCn1cnc2ccc3nc(C(=N)OCc4ccccc4)sc3c2c1=O [Compound 13c]
6.32
CCOC(=N)c1nc2ccc3ncn(C4CC4)c(=O)c3c2s1 [Compound 14a]
7.00
N=C(OCc1ccccc1)c1nc2ccc3ncn(C4CCCCC4)c(=O)c3c2s1 [Compound 13g]
5.89
CCOC(=N)c1nc2ccc3ncn(C4CCCC4)c(=O)c3c2s1 [Compound 14e]
6.11
COCCn1cnc2ccc3nc(C(=N)OCc4ccccc4)sc3c2c1=O [Compound 13b]
6.23
COC(=N)c1nc2ccc3ncn(N(C)C)c(=O)c3c2s1 [Compound 12h]
6.00
N=C(OCc1ccccc1)c1nc2ccc3ncn(C4CC4)c(=O)c3c2s1 [Compound 13a]
7.22
N=C(OCc1ccccc1)c1nc2ccc3ncn(C4CCC4)c(=O)c3c2s1 [Compound 13f]
7.15
COCCn1cnc2ccc3nc(C#N)sc3c2c1=O [Compound 11b]
5.39
N#Cc1nc2ccc3ncn(C4CC4)c(=O)c3c2s1 [Compound 11a]
5.96

---

TESTED_ON: CDK5/p25 (Homo sapiens, UniProt Q00535)
Construct: made in house
Sequence (Q00535 whole entry): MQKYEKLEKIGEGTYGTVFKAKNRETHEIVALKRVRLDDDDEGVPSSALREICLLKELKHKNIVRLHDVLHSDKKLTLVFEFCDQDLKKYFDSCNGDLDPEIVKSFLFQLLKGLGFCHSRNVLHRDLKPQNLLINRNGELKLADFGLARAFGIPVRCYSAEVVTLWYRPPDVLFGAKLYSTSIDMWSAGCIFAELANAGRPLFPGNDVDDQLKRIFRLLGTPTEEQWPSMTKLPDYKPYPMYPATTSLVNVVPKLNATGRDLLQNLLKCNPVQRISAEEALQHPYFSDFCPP
Sequence (Q15078 99-307 partner limits assumed): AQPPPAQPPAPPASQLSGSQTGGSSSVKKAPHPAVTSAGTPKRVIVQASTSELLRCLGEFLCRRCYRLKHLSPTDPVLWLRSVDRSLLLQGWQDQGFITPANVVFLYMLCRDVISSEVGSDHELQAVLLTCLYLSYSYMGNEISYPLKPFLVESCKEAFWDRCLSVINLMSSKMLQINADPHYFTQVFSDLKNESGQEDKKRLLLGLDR
EXPERIMENTAL_PROTOCOL: In vitro kinase assay CDK5/p25, [γ-33P]ATP, histone H1 substrate
Assay type: biochemical
PARAMETER: IC50

COC(=N)c1nc2ccc3ncn(C4CCCC4)c(=O)c3c2s1 [Compound 12e]
4.9 µM
CCOC(=N)c1nc2ccc3ncn(C(C)C)c(=O)c3c2s1 [Compound 14d]
> 10 µM
COC(=N)c1nc2ccc3ncn(C)c(=O)c3c2s1 [Compound 12n]
> 10 µM
COCCn1cnc2ccc3nc(C#N)sc3c2c1=O [Compound 11b]
> 10 µM
N=C(OCc1ccccc1)c1nc2ccc3ncn(C4CCCC4)c(=O)c3c2s1 [Compound 13e]
> 10 µM
COC(=N)c1nc2ccc3ncn(C4CCCCC4)c(=O)c3c2s1 [Compound 12g]
1.8 µM
COC(=N)c1nc2ccc3ncn(C4CC4)c(=O)c3c2s1 [Compound 12a]
3.9 µM
CN(C)n1cnc2ccc3nc(C(=N)OCc4ccccc4)sc3c2c1=O [Compound 13h]
> 10 µM

Cited source: paper PMC6273584
